# procedure details: In vitro rat SD liver microsomal stability
# Type: in vitro ADME
property: t_half (min)
Give bare numbers, in min.

For each of the compounds below, note its t_half.
1. Cn1ncc(-c2cc3c(N[C@@H](c4ccc5c(n4)OCCO5)C(C)(C)C)ncnc3[nH]2)c1C#N
2. CC(C)[C@H](Nc1ncnc2[nH]ccc12)c1ccc2c(c1)S(=O)(=O)CCC2

Reply:
[5.38, 4.49]

----------
# Tested on: SARS-CoV-2, isolate USA-WA1/2020
# procedure details: microbe, parasite or virus in culture
# Format: cell-based
# measurement setup: HeLa-ACE2 SARS-CoV-2 antiviral effect without P-gp inhibitor; minimum measured response of dose series
property: perc_min_measured (%)
One number for each entry, in %.

Query: Field: perc_min_measured (SARS-CoV-2, isolate USA-WA1/2020). Entry: CC(C)[C@H](Nc1ncnc2[nH]c(-c3cnn(C)c3C#N)cc12)c1ccc2c(c1)S(=O)(=O)CCC2 (single isomer, unassigned) [ASAP-0011144]
Reply: 5.734

Query: Field: perc_min_measured (SARS-CoV-2, isolate USA-WA1/2020). Entry: CC(C)[C@H](Nc1ncnc2[nH]c(-c3cnn(CC(N)=O)c3)cc12)c1ccc2c(c1)S(=O)(=O)CCC2 (single isomer, unassigned) [ASAP-0011428]
Reply: 92.21

Next:
Query: Field: perc_min_measured (SARS-CoV-2, isolate USA-WA1/2020). Entry: CCNC(=O)c1cc2c(N[C@H](c3ccc4c(c3)OCCO4)C(C)C)ncnc2[nH]1 [ASAP-0013824]
Reply: 49.504

----------
# procedure details: Permeability Papp (AB) MDR1/MDCKII
# measurement setup: In vitro MDR1-MDCKII permeability, A to B, mean
Category key, based on recorded papp_a_to_b_mean: low = under 1 ×10⁻⁶ cm/s, mid = from 1 ×10⁻⁶ cm/s up to 2 ×10⁻⁶ cm/s, high = 2 ×10⁻⁶ cm/s and over

Completed entries (count: 8):
Query: Hi there! Could you help me figure out the category for CNC(=O)c1cc2c(N[C@@H](c3ccc4c(c3)NC(=O)CO4)C(C)C)ncnc2[nH]1 [ASAP-0008571] please?
Reply: low

Query: Hi there! Could you help me figure out the category for CNC(=O)c1cc2c(N[C@@H](c3ccc4c(c3)S(=O)(=O)CCC4)C(C)C)ncnc2[nH]1 [ASAP-0008685] please?
Reply: low

Query: Hi there! Could you help me figure out the category for CC(C)[C@@H](Nc1ncnc2[nH]c(-c3cnn(CC(=O)N(C)C)c3)cc12)c1ccc2c(c1)OCCO2 [ASAP-0008485] please?
Reply: mid

Query: Hi there! Could you help me figure out the category for O=C(Nc1ccccc1)Nc1ccc(C(=O)NC2c3cccc(O)c3CC2C(=O)O)cc1 (centres unmarked) [ASAP-0000132] please?
Reply: low

Query: Hi there! Could you help me figure out the category for COc1ccc2c(c1)CCN(c1ncnc3[nH]ccc13)[C@H]2C(C)C (racemic) [ASAP-0000502] please?
Reply: high

Query: Hi there! Could you help me figure out the category for CC(C)[C@H](Nc1ncnc(N)c1Cl)c1ccc2c(c1)S(=O)(=O)CCC2 (racemic) [ASAP-0010739] please?
Reply: high

Query: Hi there! Could you help me figure out the category for O=C(Nc1cccc2c(C(=O)N[C@H]3c4ccccc4C[C@H]3C(=O)O)c[nH]c12)NC1CC1 (racemic) [ASAP-0000627] please?
Reply: mid

Query: Hi there! Could you help me figure out the category for CNC(=O)c1c[nH]c2ncnc(N[C@H](c3ccc4c(c3)S(=O)(=O)CCC4)C(C)C)c12 (racemic) [ASAP-0008641] please?
Reply: high

Next:
Query: Hi there! Could you help me figure out the category for CNC(=O)c1c[nH]c2ncnc(N[C@H](c3ccc4c(c3)S(=O)(=O)CCC4)C(C)C)c12 (single isomer, unassigned) [ASAP-0011153] please?
Reply: mid

Query: Hi there! Could you help me figure out the category for CNC(=O)c1cc2c(N[C@@H](c3ccc4c(c3)NC(=O)CO4)C(C)C)ncnc2[nH]1 [ASAP-0011219] please?
Reply: mid

Query: Hi there! Could you help me figure out the category for CNC(=O)Cn1cc(-c2cc3c(N[C@H](c4ccc5c(c4)S(=O)(=O)CCC5)C(C)C)ncnc3[nH]2)cn1 (single isomer, unassigned) [ASAP-0011171] please?
Reply: low

Query: Hi there! Could you help me figure out the category for CC(C)[C@H](Nc1ncnc2[nH]c(-c3cnn(C)c3C#N)cc12)c1ccc2c(c1)S(=O)(=O)CCC2 (single isomer, unassigned) [ASAP-0011144] please?
Reply: high

Query: Hi there! Could you help me figure out the category for CC(C)(C)[C@H](Nc1ncnc2[nH]c(-c3cnn(CC(N)=O)c3)cc12)c1ccc2c(c1)OCCO2 (racemic) [ASAP-0008581] please?
Reply: mid

The values you see were collected from paper doi:10.1101/2024.08.19.608619.
